Each record here notes measured protein stability index.
B1: GNB5 (parent)
chain: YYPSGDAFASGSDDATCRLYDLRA

# Variants of: B1
# assay_details: protein stability index of a GFP-peptide fusion (GPS, HEK-293T) (PSI 1-6); higher = more stable;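 also: lentivirally expressed fusions sorted by FACS into six bins by GFP to DsRed ratio, PSI derived from sequencing read proportions per bin multiplied by bin number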
# condition_label: c terminus: a fixed tail appended
Form field (numeric): enter value without unit.

{"variant_annotation": "D6K", "observed_property": "protein stability index", "data_value": 1.64}
{"variant_annotation": "A7Q", "observed_property": "protein stability index", "data_value": 2.65}
{"variant_annotation": "F8Y", "observed_property": "protein stability index", "data_value": 2.61}

[in] Return value of protein stability index for input T16M , no commentary.
[out] 2.31

[in] Return value of protein stability index for input G11D , no commentary.
[out] 2.74

Data origin, for the record: the supplement of paper PMC10567573
